Measured on: Plasmodium falciparum protein kinase 6 (PK6, PF3D7_1337100) (UniProt Q8IDW1)
Test: PfPK6 kinase inhibitors, biochemical, TCAMS library (AID 1159586)
Details: recombinant PfPK6, Kinase-Glo ATP depletion luminescence
Measured potencies and affinities stand elsewhere. Active and inactive are the calls of the source. No rule for the calls is given here.
Observable: outcome

Check out these entries, answers already filled in.
- CC(=O)c1ccc(-c2ccccc2)s1: inactive
- O=C(Nc1ccc(C(F)(F)F)cc1)c1ccc(S(=O)(=O)NCC2CCCN(CC3CCCCC3)C2)cc1 (stereo not given): inactive
- COc1cc(N)c(Cl)cc1C(=O)NC1CCC(NCC2CCCCC2)CC1 (stereo not given): inactive
- CCN(CC)CCc1ccc2c(=O)cc(CCc3cccc(F)c3F)n(CC(=O)N(C)Cc3ccc(-c4ccc(C(F)(F)F)cc4)cc3)c2c1: inactive

Let us move to another entry and its outcome.
Exam item: Given the compound "CCCCCC(C)(C)NC[C@@H](O)[C@H](Cc1ccccc1)NC(=O)c1cc(NCC)cc(N2CCCC2=O)c1" , write its reported outcome.
Marked response: inactive

---

Measured on: Calcium-dependent protein kinase 1 (Plasmodium falciparum (isolate 3D7))
Test: PfCDPK1 kinase inhibitors, biochemical, TCAMS library (AID 1159585);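 also: inhibitors leave more ATP so luminescence rises with inhibition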
Details: recombinant PfCDPK1, Kinase-Glo ATP depletion luminescence
Results with a measured potency or affinity are listed apart. Calls of active or inactive are those of the source. Cut-off not given; nearly all actives show IC50 up to about 0.98 µM.
Observable: outcome

Check out these entries, answers already filled in.
- O=C(Nc1cccc(Cl)c1)N(CCCn1ccnc1)Cc1csc(-c2ccc(CNCc3ccccc3)cc2)n1: inactive
- COc1ccc(NC(=O)[C@H](CC(C)C)Nc2cc(C)nc(NCc3ccccc3C)n2)cc1: inactive
- CCCCCCCN(CCCCCCC)CCCC(=O)Nc1ccnc2ccc(OC)cc12: inactive
- O=C(Nc1cccc(-c2nc3ccccc3s2)c1)c1ccccc1[N+](=O)[O-]: inactive

Let us move to another entry and its outcome.
Exam item: Given the compound "Cc1cc(NC2CCCC2)nc(Nc2ccccc2C)n1" , write its reported outcome.
Marked response: inactive

---

Measured on: Calcium-dependent protein kinase 4 (Plasmodium falciparum (isolate 3D7)) (UniProt Q8IBS5)
Sequence (Q8IBS5 whole entry, looked up): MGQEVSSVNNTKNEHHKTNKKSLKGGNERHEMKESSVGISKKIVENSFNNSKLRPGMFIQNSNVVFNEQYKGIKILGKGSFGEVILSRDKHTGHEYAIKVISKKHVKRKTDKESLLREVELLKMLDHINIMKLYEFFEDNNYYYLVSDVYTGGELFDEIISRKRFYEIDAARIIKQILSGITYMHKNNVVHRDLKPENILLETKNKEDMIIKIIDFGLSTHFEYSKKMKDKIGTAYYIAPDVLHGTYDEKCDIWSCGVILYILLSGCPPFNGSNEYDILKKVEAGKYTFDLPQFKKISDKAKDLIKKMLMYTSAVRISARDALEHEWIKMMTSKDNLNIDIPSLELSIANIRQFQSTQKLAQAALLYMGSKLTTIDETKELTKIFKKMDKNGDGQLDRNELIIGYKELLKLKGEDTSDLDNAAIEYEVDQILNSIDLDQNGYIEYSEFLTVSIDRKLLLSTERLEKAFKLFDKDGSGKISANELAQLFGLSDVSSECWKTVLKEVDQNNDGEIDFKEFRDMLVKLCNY
Test: PfCDPK4 kinase inhibitors, biochemical, TCAMS library (AID 1159588)
Details: recombinant PfCDPK4, Kinase-Glo ATP depletion luminescence
Results with a measured potency or affinity are listed apart. The source made the active and inactive calls. No cut-off is given here; in the data, nearly all actives have IC50 up to about 0.91 µM.
Observable: outcome

• CCc1c(C(=O)NC2CCC(N3CCC(c4ccccc4C)CC3)CC2)[nH]c2ccc(OC)cc12 (stereo unspecified) = inactive
• CCN(CC)CCNc1ccnc2[nH]c3ccc([N+](=O)[O-])cc3c12 = inactive
• Cc1cccc2[nH]c(-c3ccc(-c4cccc(CN5CCN(c6ccncc6)CC5)c4)s3)nc12 = inactive
• CN(C)C(=O)CC(=O)NCc1c(Cl)cccc1Cl = inactive
• CCCCCCn1c2c(c(=N)c3c1CCC3)CCCC2 = inactive

Let us move to another entry and its outcome.
Exam item: Given the compound "CCN(CC)c1ccc(NC(=S)NC2CCN(CCCCCNC(=O)/C=C/c3ccc(Cl)c(Cl)c3)CC2)cc1" , write its reported outcome.
Marked response: inactive

---

Test: inhibition of 3D7 malaria parasite growth – strain 3D7 (AID 2306);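 also: 0% = DMSO wells and 100% = chloroquine plus artemisinin control wells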
Details: P. falciparum 3D7 erythrocytic growth, LDH absorbance, 72 h; at 2 µM; stronger effect = higher value
Observable: growth inhibition (%)
Give just the numeric value; % need not be written.

• Cc1ccc2nc(NC#N)[nH]c2c1 = 96
• COc1ccc(Nc2nccc(N3CCC(NC(=O)Nc4cccc(C(C)=O)c4)C3)n2)cc1 (stereo not given) = 98
• Nc1ncc(-c2cc3ccccc3o2)c(N)n1 = 81
• CN(C)CCOc1cc(NC(=O)Nc2ccc(Cl)cc2C(F)(F)F)ccc1I = 96
• COc1cccc(CN2CCCC(OC(c3ccc(F)cc3)c3ccc(F)cc3)C2)c1O (stereo not given) = 95
• CCN(CC)CCNC(=O)c1ccc(NC(=O)c2ccc(-c3cc(NC(=O)CC4CCCC4)ccc3C)cc2)cc1 = 99
• CCCCNc1c(C(=O)OCC)c(C)nc2c1[nH]c1ccccc12 = 100
• CCOC(=O)CCc1cc(F)c(F)c(OC[C@H](O)CNC(C)(C)C(O)c2ccc3ccccc3c2)c1 (stereo not given in full) = 99

Exam item: Given the molecule C=CCN1C(=O)C(C(C)=O)=C(O)C1c1ccccc1 (stereo not given) , write its reported growth inhibition.
Marked response: 93

Exam item: Given the molecule "FC(F)(F)c1cccc(Nc2nc3ccccc3nc2Nc2cccc(C(F)(F)F)c2)c1" , write its reported growth inhibition.
Marked response: 101
